target: human TLR7 (Homo sapiens); assay: TLR7 inhibition reporter assay (HEK-Blue cells, SEAP reporter, gardiquimod stimulation); conditions: HEK-Blue cells overexpressing human TLR7, SEAP reporter, gardiquimod 7.5 μM
Sequence (Q9NYK1 27-1049): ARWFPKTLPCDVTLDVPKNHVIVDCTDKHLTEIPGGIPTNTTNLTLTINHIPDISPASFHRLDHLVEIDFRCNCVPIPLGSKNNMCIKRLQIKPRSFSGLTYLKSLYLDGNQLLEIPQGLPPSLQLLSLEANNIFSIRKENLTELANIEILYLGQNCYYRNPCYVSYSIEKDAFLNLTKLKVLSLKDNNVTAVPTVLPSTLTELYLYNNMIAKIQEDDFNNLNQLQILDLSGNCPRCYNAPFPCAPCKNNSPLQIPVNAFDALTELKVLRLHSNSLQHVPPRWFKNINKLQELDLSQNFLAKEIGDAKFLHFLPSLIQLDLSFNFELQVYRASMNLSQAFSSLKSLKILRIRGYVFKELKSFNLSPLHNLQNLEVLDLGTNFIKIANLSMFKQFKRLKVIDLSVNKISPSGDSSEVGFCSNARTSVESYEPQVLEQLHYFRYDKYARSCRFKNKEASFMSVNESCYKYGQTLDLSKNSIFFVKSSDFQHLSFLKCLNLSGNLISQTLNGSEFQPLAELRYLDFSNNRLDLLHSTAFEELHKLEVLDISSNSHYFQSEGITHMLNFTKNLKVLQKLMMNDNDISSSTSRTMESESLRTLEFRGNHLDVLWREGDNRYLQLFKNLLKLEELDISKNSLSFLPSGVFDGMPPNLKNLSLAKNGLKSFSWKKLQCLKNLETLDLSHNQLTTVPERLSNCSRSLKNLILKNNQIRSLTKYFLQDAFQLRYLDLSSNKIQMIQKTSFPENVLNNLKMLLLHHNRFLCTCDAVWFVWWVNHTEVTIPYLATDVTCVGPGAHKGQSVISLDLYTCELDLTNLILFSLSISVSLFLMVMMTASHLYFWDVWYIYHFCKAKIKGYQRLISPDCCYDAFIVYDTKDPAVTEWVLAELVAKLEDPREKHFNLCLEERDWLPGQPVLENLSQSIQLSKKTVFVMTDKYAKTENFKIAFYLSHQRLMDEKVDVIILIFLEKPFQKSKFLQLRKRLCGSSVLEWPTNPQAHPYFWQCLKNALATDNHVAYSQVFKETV
pIC50: −log10 of the molar value.
parameter: pIC50

According to the records, this compound "CCc1c(-c2c[nH]c3ncncc23)[nH]c2ccc(C3CCNCC3)cc12" displays pIC50 of > 7.00

Documented pIC50 of "Cc1nc[nH]c1CN1CCC(c2ccc3[nH]c(-c4ccnc5[nH]nc(C)c45)c(C(C)C)c3c2)CC1" : > 7.00

For "COc1c(C)c(-c2[nH]c3ccc(C4CCN(CC(C)(C)O)CC4)cc3c2C(C)C)nn2ncnc12" the compound record lists pIC50 as > 7.00

response.value for "Cc1c(-c2[nH]c3ccc(C4CCN(CC(C)(C)O)CC4)cc3c2C(C)C)cn2ccnc2c1Cl" (field: pIC50) = > 7.00

Record summary for "Cc1cc(-c2[nH]c3ccc(C4CCNCC4)cc3c2C(C)C)cc2cncn12" : reported pIC50 = > 7.00

pIC50 reading for "CC(C)c1c(-c2ccnc3[nH]ncc23)[nH]c2ccc(C3CCN(C(=O)CN4CCN(c5ccncc5)CC4)CC3)cc12" : > 7.00

Record "CC(C)c1c(-c2cccn3ncnc23)[nH]c2ccc(C3CCN(CC(=O)N(C)C)CC3)cc12" . Reported pIC50: 6.00 to 7.00

The recorded pIC50 for "CC(C)(O)CC(=O)N1CCC(c2ccc3[nH]c(-c4cc(F)c5nccn5c4)c(CC(F)F)c3c2)CC1" is 6.00 to 7.00

Data point: "CNC(=O)c1cn2cc(-c3[nH]c4ccc(C5CCNCC5)cc4c3C(C)C)cc(C)c2n1" ; pIC50 = > 7.00

The reported pIC50 of the compound "CCc1c(-c2cc3cnn(C)c3cn2)[nH]c2ccc(C3CCNCC3)cc12" was 4.30 to 6.00
